TESTED TARGET: UniProt:Q6DWJ6
Sequence (Q6DWJ6 whole entry): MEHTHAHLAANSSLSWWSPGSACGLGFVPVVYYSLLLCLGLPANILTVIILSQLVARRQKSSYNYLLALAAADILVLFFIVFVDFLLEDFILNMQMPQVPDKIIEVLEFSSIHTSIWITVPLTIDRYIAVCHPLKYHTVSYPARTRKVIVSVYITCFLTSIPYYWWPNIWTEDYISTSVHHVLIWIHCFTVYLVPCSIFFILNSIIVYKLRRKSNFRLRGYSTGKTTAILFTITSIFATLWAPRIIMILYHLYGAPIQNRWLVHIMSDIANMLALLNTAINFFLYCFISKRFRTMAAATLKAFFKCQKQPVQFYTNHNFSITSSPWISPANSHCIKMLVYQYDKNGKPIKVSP
METHOD DESCRIPTION: Agonist activity at human GPR139 expressed in CHO-K1 cells assessed as increase in calcium flux by calcium 5 dye based FLIPR assay
Assay type: functional, cell-based
TEST CONTEXT: cho-k1
pEC50: −log10 of the molar value.
RECORDED ENDPOINT: pEC50

SMILES INPUT | pEC50
Cc1ccc([C@H](C)NC(=O)Cn2nc3cccc(F)n3c2=O)cc1 | 9.00
Cc1ccn2c(=O)n(CC(=O)N[C@@H](C)c3ccc(OC(F)(F)F)cc3)nc2n1 | 9.00
Cc1ccc([C@H](C)NC(=O)Cn2nc3ncccn3c2=O)cc1Cl | 9.00

a: C[C@H](NC(=O)Cn1nc2cc(OC3CN(C)C3)ccn2c1=O)c1ccc(OC(F)(F)F)cc1
b: Cc1ccc([C@H](C)NC(=O)Cn2nc3c(Cl)cccn3c2=O)cc1
Challenge: Sorting by pEC50 in descending order, would a or b appear first? Answer by stating the label of the chosen item.
Response given: b

====

TESTED TARGET: UniProt Q6DWJ6
METHOD DESCRIPTION: Agonist activity at human GPR139 expressed in CHO-K1 cells assessed as increase in calcium flux by calcium 5 dye based FLIPR assay
Assay type: functional, cell-based
RECORDED ENDPOINT: EC50

// known answers, use as guide
SMILES INPUT | EC50
O=C(Cn1nc2ccc(F)cn2c1=O)NC1(c2cccc(Cl)c2)CC1 | ≥ 100 nM
Cc1ccc([C@H](C)NC(=O)Cn2nc3ccccn3c2=O)cc1Cl | < 1 nM
Cc1ccc([C@H](C)NC(=O)Cn2nc3cc(C)ccn3c2=O)cc1 | < 1 nM
Cc1ccc([C@H](C)NC(=O)Cn2nc3cc(Cl)ccn3c2=O)cc1 | < 1 nM

Now take the following molecule into account.
Challenge: Indicate the recorded EC50 value for this molecule: C[C@H](NC(=O)Cn1nc2ncc(C3CC3)cn2c1=O)c1ccc(Cl)c(F)c1
Response given: < 1 nM

====

The compounds listed here are annotated with their EC50.
TESTED TARGET: Probable G-protein coupled receptor 139 (Homo sapiens)
METHOD DESCRIPTION: Agonist activity at human GPR139 expressed in CHO-K1 cells assessed as increase in calcium flux by calcium 5 dye based FLIPR assay
Assay type: functional, cell-based

COMPOUND | REPORTED MEASUREMENT
C[C@H](NC(=O)Cn1nc2ccc(Cl)nn2c1=O)c1ccc(Cl)c(F)c1 | < 1 nM
O=C(Cn1nc2cccnn2c1=O)NC1(c2cccc(Cl)c2)CC1 | ≥ 100 nM
C[C@H](NC(=O)Cn1nc2ccc(C3CC3)nn2c1=O)c1ccc(Cl)c(F)c1 | < 1 nM

Now take the following compound into account.
Challenge: Indicate the recorded EC50 value for this compound: Cc1nccn2c(=O)n(CC(=O)N[C@@H](C)c3ccc(Cl)c(F)c3)nc12
Response given: < 1 nM
